- measurement_description: Peptide stability in simulated intestinal fluid (SIF)
- Format: in vitro ADME
- assay_context: simulated intestinal fluid
*1 amine or outer side, *2 acyl side, *3 side chain or, on linkers, in order; H or OH if unused. Where a SMILES comes first, the peptide text is derived from it. Bridges are numbered along the chain shown (N, C = ends). [ ]: non-standard residue; d: D form. 2Nal = N[C@@H](Cc1ccc2ccccc2c1)C(=O)O; AEF = NCCOc1ccc(C[C@H](N)C(=O)O)cc1; X1 = O=C(Cc1ccc(CN[*:1])cc1)[*:2]; 3Pal = N[C@@H](Cc1cccnc1)C(=O)O; αMeL = CC(C)C[C@](C)(N)C(=O)O; Dab = NCC[C@H](N)C(=O)O; Sar = CNCC(=O)O
reported_endpoint: SIF stability (in words)

compound	observed
CC(C)C[C@]1(C)NC(=O)[C@H](Cc2ccc3ccccc3c2)NC(=O)[C@H](Cc2ccc(OCCN)cc2)NC(=O)[C@@H]2CCNC(=O)CC[C@H](NC(=O)[C@H](CO)NC(=O)Cc3ccc(cc3)CNC(=O)CC[C@@H](C(=O)N[C@@H](CCN)C(=O)N[C@@H](Cc3cccnc3)C(=O)N(C)CC(N)=O)NC1=O)C(=O)N[C@@H](Cc1c[nH]c3ccccc13)C(=O)N[C@@H](CCC(N)=O)C(=O)N2 [Compound 9] ([X1]SEWQ[Dab][AEF][2Nal][αMeL]E[Dab][3Pal][Sar]-NH2; lactam 3-6, N-10)	SIF stable
CC(C)C[C@]1(C)NC(=O)[C@H](Cc2ccc3ccccc3c2)NC(=O)[C@H](Cc2ccc(OCCN)cc2)NC(=O)[C@@H]2CCNC(=O)CC[C@H](NC(=O)[C@H](CO)NC(=O)Cc3ccc(cc3)CNC(=O)CC[C@@H](C(=O)N[C@@H](CCN)C(=O)NCCc3cccnc3)NC1=O)C(=O)N[C@@H](Cc1c[nH]c3ccccc13)C(=O)N[C@@H](CCC(N)=O)C(=O)N2	SIF stable

* * *

- measurement_description: Peptide stability in simulated gastric fluid (SGF)
- Assay type: in vitro ADME
- assay_context: pig, 4 h, pH 1.2, pepsin, 37° C.
*1 amine or outer side, *2 acyl side, *3 side chain or, on linkers, in order; H or OH if unused. Where a SMILES comes first, the peptide text is derived from it. Bridges are numbered along the chain shown (N, C = ends). [ ]: non-standard residue; d: D form. 2Nal = N[C@@H](Cc1ccc2ccccc2c1)C(=O)O; AEF = NCCOc1ccc(C[C@H](N)C(=O)O)cc1; X1 = O=C(Cc1ccc(CN[*:1])cc1)[*:2]; 3Pal = N[C@@H](Cc1cccnc1)C(=O)O; αMeL = CC(C)C[C@](C)(N)C(=O)O; Dab = NCC[C@H](N)C(=O)O; Sar = CNCC(=O)O
remaining at 4 h, 10 µM values by entry
reported_endpoint: remaining at 4 h, 10 µM (%)

compound	observed
CSCC[C@H](NC(=O)[C@@H]1CSCC(=O)CSC[C@H](NC(=O)[C@@H](N)CCC(=O)O)C(=O)N[C@@H](Cc2c[nH]c3ccccc23)C(=O)N[C@@H](CC(C)C)C(=O)N[C@H]2CSCC(=O)CSC[C@H](NC(=O)[C@H](CC(N)=O)NC(=O)[C@H](CCCNC(=N)N)NC(=O)[C@H](Cc3ccc(O)cc3)NC(=O)[C@H](Cc3ccc(O)cc3)NC2=O)C(=O)N[C@@H](CC(N)=O)C(=O)N1)C(N)=O (single isomer, unassigned) [I4 (isomer 3), H-EC(4a)WLC(5a)YYRNC(5a)NC(4a)M-[NH2], reference compound]	99
CNC(=O)[C@H](Cc1cccnc1)NC(=O)[C@H](CCN)NC(=O)[C@@H]1CCC(=O)NCc2ccc(cc2)CC(=O)N[C@@H](CO)C(=O)N[C@H]2CCC(=O)NCC[C@H](NC(=O)[C@H](CCC(N)=O)NC(=O)[C@H](Cc3c[nH]c4ccccc34)NC2=O)C(=O)N[C@@H](Cc2ccc(OCCN)cc2)C(=O)N[C@@H](Cc2ccc3ccccc3c2)C(=O)N[C@@](C)(CC(C)C)C(=O)N1	87
CNC(=O)[C@H](Cc1cccnc1)NC(=O)[C@H](COC)NC(=O)[C@@H]1CCC(=O)NCc2ccc(cc2)CC(=O)N[C@@H](CO)C(=O)N[C@H]2CCC(=O)NCC[C@H](NC(=O)[C@H](CCC(N)=O)NC(=O)[C@H](Cc3c[nH]c4ccccc34)NC2=O)C(=O)N[C@@H](Cc2ccc(OCCN)cc2)C(=O)N[C@@H](Cc2ccc3ccccc3c2)C(=O)N[C@@](C)(CC(C)C)C(=O)N1	102
CC(C)C[C@]1(C)NC(=O)[C@H](Cc2ccc3ccccc3c2)NC(=O)[C@H](Cc2ccc(OCCN)cc2)NC(=O)[C@@H]2CCNC(=O)CC[C@H](NC(=O)[C@H](CO)NC(=O)Cc3ccc(cc3)CNC(=O)CC[C@@H](C(=O)N[C@@H](CCN)C(=O)N[C@@H](Cc3cccnc3)C(=O)N(C)CC(N)=O)NC1=O)C(=O)N[C@@H](Cc1c[nH]c3ccccc13)C(=O)N[C@@H](CCC(N)=O)C(=O)N2 [Compound 9] ([X1]SEWQ[Dab][AEF][2Nal][αMeL]E[Dab][3Pal][Sar]-NH2; lactam 3-6, N-10)	95
CNC(=O)[C@H](Cc1cccnc1)NC(=O)[C@H](Cc1c[nH]cn1)NC(=O)[C@@H]1CCC(=O)NCc2ccc(cc2)CC(=O)N[C@@H](CO)C(=O)N[C@H]2CCC(=O)NCC[C@H](NC(=O)[C@H](CCC(N)=O)NC(=O)[C@H](Cc3c[nH]c4ccccc34)NC2=O)C(=O)N[C@@H](Cc2ccc(OCCN)cc2)C(=O)N[C@@H](Cc2ccc3ccccc3c2)C(=O)N[C@@](C)(CC(C)C)C(=O)N1 [Compound 34] ([X1]SEWQ[Dab][AEF][2Nal][αMeL]EH[3Pal]-NHMe; lactam 3-6, N-10)	95
CNC(=O)CC[C@@H]1NC(=O)[C@H](Cc2c[nH]c3ccccc23)NC(=O)[C@@H]2CCC(=O)NCC[C@H](NC1=O)C(=O)N[C@@H](Cc1ccc(OCCN)cc1)C(=O)N[C@@H](Cc1ccc3ccccc3c1)C(=O)N[C@@](C)(CC(C)C)C(=O)N[C@H](C(=O)N[C@@H](CCN)C(=O)N[C@@H](Cc1cccnc1)C(=O)NC)CCC(=O)NCc1ccc(cc1)CC(=O)N[C@@H](CO)C(=O)N2 [Compound 29] ([X1]SEWE(NHMe)[Dab][AEF][2Nal][αMeL]E[Dab][3Pal]-NHMe; lactam 3-6, N-10)	90
CC(C)C[C@@H]1NC(=O)[C@H](Cc2c[nH]c3ccccc23)NC(=O)[C@H](Cc2c[nH]c3ccccc23)NC(=O)[C@@H]2CSCC(=O)CSC[C@H](NC(=O)[C@H]([C@@H](C)O)NC(=O)[C@@H](NC(=O)CN)CSCC(=O)CSC[C@@H](C(=O)N[C@@H](CO)C(N)=O)NC1=O)C(=O)N[C@@H](Cc1c[nH]c3ccccc13)C(=O)N[C@@H](CCC(=O)O)C(=O)N2 (single isomer, unassigned) [I1 (isomer 3), H-GC(1a)TC(2a)WEC(2a)WWLC(1a)S-[NH2], reference compound]	94
